# System: Pseudomonas aeruginosa
# Procedure details: Antibacterial activity against Pseudomonas aeruginosa PAO1 after 18 to 24 hrs by broth microdilution method
# Format: functional

{"Structure smiles string": "COc1ccc2nnc(=O)n(CCN3CCC(NCc4ccc5c(n4)NC(=O)CO5)CC3)c2c1", "MIC": "8 µg/mL"}
{"Structure smiles string": "N#Cc1ccc2c(c1)N(CCN1CCC(NCc3ccc4c(n3)NC(=O)CO4)CC1)C(=O)CO2", "MIC": "2 µg/mL"}
{"Structure smiles string": "COc1ccc2ncc(=O)n(CCN3CCC(NCc4cc5c(cn4)OCCO5)CC3)c2n1", "MIC": "4 µg/mL"}
{"Structure smiles string": "COc1ccc2ccc(=O)n(CCN3CCC(NCc4cc5c(cn4)OCCO5)CC3)c2c1", "MIC": "> 8 µg/mL"}
{"Structure smiles string": "COc1ccc2c(c1)N(CCN1CCC(NCc3cc4c(cn3)OCCO4)CC1)C(=O)CS2", "MIC": "> 8 µg/mL"}
